target: T1, human Claudin18.2 (human); assay: FACS, Claudin18.2-HEK293 cells
T1 construct: also called CLDN18.2
MEASUREMENT TYPE: Span
In your answer, state the number alone without any accompanying words.

{"columns": ["BINDER", "MEASUREMENT TYPE", "ENDPOINT RESULT"],
 "data": [
  ["humanized 410H6H3-VH1 + VL1 (antibody, human IgG1, kappa, V domains shown, humanized, human IgG1/kappa constant regions) VH: EVQLVESGGGLVQPGGSLRLSCAASGFTFSSSGMHWVRQAPGKGLEWVSYISSGSNTIYYADTLKGRFTISRDNAKNSLYLQMNSLRAEDTAVYYCARIYYGNSFVYWGQGTLVTVSS VL: DIVMTQSPDSLAVSLGERATINCKSSQSLLNSGNQKNYLTWYQQKPGQPPKLLIYWASTRESGVPDRFSGSGSGTDFTLTISSLQAEDVAVYYCQNNYYYPLTFGQGTKLEIKR", "Span", 72100],
  ["humanized 232C5E3-VL1.1 + VH1 (antibody, human IgG1, kappa, V domains shown, humanized, human IgG1/kappa constant regions) VH: QVQLVQSGAEVKKPGASVKVSCKASGYTFTSHNIHWVRQAPGQRLEWMGYIYPGNGGTNYNQKFKARVTITRDTSASTAYMELSSLRSEDTAVYYCARDYYGNSFAYWGQGTLVTVSS VL: DIVMTQSPDSLAVSLGERATMSCKSSQSLLNSGNQKNYLTWYQQKPGQPPKLLIYWASTRESGVPDRFSGSGSGTDFTLTISSLQAEDVAVYYCQNGYRFPFTFGQGTKLEIKR", "Span", 58000],
  ["humanized 246B5F2-VH1.1 + VL1.1 (antibody, human IgG1, kappa, V domains shown, humanized, human IgG1/kappa constant regions) VH: EVQLLESGGGLVQPGGSLRLSCAASEFTFSNYAMSWVRQAPGKRLEWVATISSGRSSTYYPDSVKGRFTISRDNSKNTLYLQMNSLRAEDTAVYYCAGLGRGNAMEYWGQGTLVTVSS VL: DIVMTQSPDSLAVSLGERATISCKSSQSLLNSGNQKNYLTWYQQKPGQPPKLLIYWASTRESGVPDRFTGSGSGTDFTLTISSLQAEDVAVYYCQNAYSYPFTFGGGTKLEIKR", "Span", 14700]
]}

Provide only the value of recorded Span for humanized 412B6E4-VH1.2 + VL1.1 (antibody, human IgG1, kappa, V domains shown, humanized, human IgG1/kappa constant regions) VH: EVQLVESGGGLVQPGGSRRLSCAASGFTFSSFGVHWVRQAPGKGLEWVSYISSGSSTIYYAHSVKGRFTISRDNAKNTLFLQMNSLRAEDTAVYYCARFYYGNSFAYWGQGTLVTVSS VL: DIVMTQSPDSLAVSLGERATMSCKSSQSLLNSGNQKNYLTWYQQKPGQPPKMLIYWASTRESGVPDRFSGSGSGTDFTLTISSLQAEDVAVYYCQNAYTYPLTFGQGTKLEIKR
70300

Assign Span to the following record: chimeric 410H6H3 (antibody, human IgG1, kappa, V domains shown, chimeric, human IgG1/kappa constant regions; also called 410H6H3-Chimeric) VH: DVLLVESGGGLVQPGGSRKLSCAASGFTFSSSGMHWVRQAPEKGLEWVAYISSGSNTIYYADTLKGRFTISRDNPKNTLFLQMTSLRSEDTAMYYCARIYYGNSFVYWGQGTLVTVSA VL: DIVMTQSPSSLTVTAGEKVIMSCKSSQSLLNSGNQKNYLTWYQQKPGQPPKMLIYWASTRESGVPDRFRGSGSGTDFTLTISSVQAEDLAVYYCQNNYYYPLTFGTGTKLALKR
79100

All figures here come from patent US20220073643A1.
